Let's look at some binders and their measured koff.
tested target: T1, recombinant human CD3 epsilon/gamma heterodimer (human, UniProt P07766 23-126; P09693 23-116)
T1 construct: Recombinant heterodimer used as analyte in Octet; also called hCD3 E/G
T1 sequence (P07766 23-126, chain 1 of 2): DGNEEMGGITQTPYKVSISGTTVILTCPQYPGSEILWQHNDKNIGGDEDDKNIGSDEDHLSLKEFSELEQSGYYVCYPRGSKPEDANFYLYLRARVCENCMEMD
T1 sequence (P09693 23-116, chain 2 of 2): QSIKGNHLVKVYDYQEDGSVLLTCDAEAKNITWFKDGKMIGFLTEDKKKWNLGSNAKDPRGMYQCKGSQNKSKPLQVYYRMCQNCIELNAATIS
test summary: BLI (Octet), mAb 5 ug/mL on FAB2G sensor, hCD3 E/G 200-50 nM;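 also: antibodies purified from hybridoma supernatants, measured by Octet binding to recombinant human CD3 protein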
Entry rule: numbers only, all in s⁻¹.

ABL-CD3-67 (antibody, V domains shown, mAb purified from hybridoma; chimeric AlivaMab IgG (human VH, CH1 and upper hinge; mouse middle hinge, CH2, CH3; human light chain)) VH: EVQLVESGGGLVKPGGSLRLSCAASGFTVSSYSMNWVRQAPGKGLEWVSSISRSSSYIYYADSVKGRFTISRDNAKNSLFLQMNSLRAEDTAVYYCARERWELLYFDYWGQGTLVTVSS VL: NFMLTQPHSVSESPGKTVTISCTRSSGSIASNYVQWYRQRPGSSPTTVIYEDNQRPSGVPDRFSGAIDSSSTSASLTISGLKTEDEADYYCQSYDSSNRVFGGGTKLTVL = 0.0178

Query :: Need koff, item ABL-CD3-82 (antibody, V domains shown, mAb purified from hybridoma; chimeric AlivaMab IgG (human VH, CH1 and upper hinge; mouse middle hinge, CH2, CH3; human light chain)) VH: EVQLVESGGGLVKPGGSLRLSCAASGFTFSSYSMNWVRQAPGKGLEWVSSISSSSSYIYYADSVKGRFTISRDNAKNSLYLQMNSLRAEDTAVYYCARDRRELLLDYWGQGTLVTVSS VL: SYELTQPPSVSVSPGQTARITCSGDALPKKYAYWYQQKSGQAPVLVIYEDSKRPSGIPERFSGSSSGTMATLTISGAQVEDEADYYCYSTDSSGNHSWVFGGGTKLTVL
Result :: 0.00197

Query :: Need koff, item ABL-CD3-74 (antibody, V domains shown, mAb purified from hybridoma; chimeric AlivaMab IgG (human VH, CH1 and upper hinge; mouse middle hinge, CH2, CH3; human light chain)) VH: EVQLVESGGGLVKPGGSLRLSCAASGFTFSSYSMKWVRQAPGKGLEWVSSISSSSSYIYYADSVKGRFTISRDNAKNSLYLQMNSLRAEDTAVYYCARDRGELTLWYWGQGTLVTVSS VL: SYELTQPPSVSVSPGQTARITCSGDALPKKYAYWYQQKSGQAPVLVIYEDSKRPSGIPERFSGSSSGTMATLTISGAQVEDEADYYCYSTDSSGNHWVFGGGTKLTVL
Result :: 0.0609
